FYI, the data here is from paper PMC9090415.

Attribute: % inhibition apPOL 180'
System Name: UniProt:Q8ILY1
Sequence (Q8ILY1 entry or part of it): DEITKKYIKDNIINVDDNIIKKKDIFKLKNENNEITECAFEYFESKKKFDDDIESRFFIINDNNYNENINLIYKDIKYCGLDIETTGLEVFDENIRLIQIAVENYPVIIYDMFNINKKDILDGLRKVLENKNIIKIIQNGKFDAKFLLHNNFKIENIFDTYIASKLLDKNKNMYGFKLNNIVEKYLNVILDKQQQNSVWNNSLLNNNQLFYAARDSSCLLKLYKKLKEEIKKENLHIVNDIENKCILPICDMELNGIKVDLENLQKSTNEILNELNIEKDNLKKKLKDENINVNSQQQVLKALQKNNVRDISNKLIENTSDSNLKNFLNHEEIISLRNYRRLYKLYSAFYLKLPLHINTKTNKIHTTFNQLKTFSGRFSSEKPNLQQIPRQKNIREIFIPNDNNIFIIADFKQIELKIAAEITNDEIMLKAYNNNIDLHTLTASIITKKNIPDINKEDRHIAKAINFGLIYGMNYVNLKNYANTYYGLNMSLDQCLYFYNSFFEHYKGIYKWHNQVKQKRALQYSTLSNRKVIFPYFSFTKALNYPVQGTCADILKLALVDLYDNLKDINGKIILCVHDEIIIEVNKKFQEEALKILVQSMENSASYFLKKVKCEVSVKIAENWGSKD
Test Description: Fluorescence-based high-throughput DNA polymerase assay (molecular beacon), primary screen and dose-response;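 further: test concentration in µM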
Format: biochemical
Assay Context: DRC-2, 180', concentration 5
Response body: numeric value in %, unit text excluded.

Please review the entries below; each comes with its answer.
CSC(C)C(=O)C=CN(C)C (stereo not shown)	0.715
CO/N=C(\C(=O)N[C@@H]1C(=O)N2C(C(=O)[O-])=C(CSc3nc(=O)c([O-])nn3C)CSC12)c1csc(N)n1.[Na+].[Na+] (stereo partly shown)	-12
O=C(Nc1nnc(-c2ccno2)o1)c1ccc2ncsc2c1	-6
COc1ccc2c(c1)CCc1c-2nc2ccc(Br)cc2c1C(=O)O	13

I am curious: what % inhibition apPOL 180' value has been reported for "O=C(Nc1ncc([N+](=O)[O-])s1)c1ccc2c(c1)C(=O)N(N1C(=O)c3ccccc3C1=O)C2=O" ?
9

I am curious: what % inhibition apPOL 180' value has been reported for CCOc1ccccc1-c1nc(-c2ccc(=O)[nH]c2)no1 [Molecule 76, CCOc1ccccc1c1onc(n1)c1ccc(=O)[nH]c1] ?
1.18

I am curious: what % inhibition apPOL 180' value has been reported for "COc1ccc(C(=O)Nc2cccc(-c3nc4ncccc4o3)c2)cc1[N+](=O)[O-]" ?
2.55
